# protocol: Acute toxicity (LD50) on mice
# details: mouse, in vivo, po
// reported LD50 for each item listed

Field: example entries. Status: answers known.
CC(CC(=O)OC(C)(C)C)=NNc1ccc(C(N)=O)nn1 : > 200 mg/kg
CCOC(=O)CCCCC(C)=NNc1ccc(Cl)nn1 : < 200 mg/kg
c1cc(N2CCOCC2)nnc1NN=C1CCCCC1 : < 200 mg/kg
CC(CC(=O)OC(C)(C)C)=NNc1ccc(N2CCOCC2)nn1 : 400 mg/kg
CCOC(=O)C(C)C(C)=NNc1ccc(Cl)nn1 (centres unmarked) : 200 mg/kg

# input Bench note: what LD50 did CCOC(=O)CC=NNc1ccc(Cl)nn1 show?
# output > 200 mg/kg

# input Entry CC(CCC(=O)O)=NNc1ccc(Cl)nn1 please
# output 200 mg/kg

# input Now consider CC(CCC(=O)O)=NNc1ccc(C)nn1 .
# output > 200 mg/kg
